The measured values listed here are drawn from ChEMBL document CHEMBL4371025.

testedOn: Fatty-acid amide hydrolase 1 (Rattus norvegicus, UniProt P97612)
Sequence (P97612 whole entry): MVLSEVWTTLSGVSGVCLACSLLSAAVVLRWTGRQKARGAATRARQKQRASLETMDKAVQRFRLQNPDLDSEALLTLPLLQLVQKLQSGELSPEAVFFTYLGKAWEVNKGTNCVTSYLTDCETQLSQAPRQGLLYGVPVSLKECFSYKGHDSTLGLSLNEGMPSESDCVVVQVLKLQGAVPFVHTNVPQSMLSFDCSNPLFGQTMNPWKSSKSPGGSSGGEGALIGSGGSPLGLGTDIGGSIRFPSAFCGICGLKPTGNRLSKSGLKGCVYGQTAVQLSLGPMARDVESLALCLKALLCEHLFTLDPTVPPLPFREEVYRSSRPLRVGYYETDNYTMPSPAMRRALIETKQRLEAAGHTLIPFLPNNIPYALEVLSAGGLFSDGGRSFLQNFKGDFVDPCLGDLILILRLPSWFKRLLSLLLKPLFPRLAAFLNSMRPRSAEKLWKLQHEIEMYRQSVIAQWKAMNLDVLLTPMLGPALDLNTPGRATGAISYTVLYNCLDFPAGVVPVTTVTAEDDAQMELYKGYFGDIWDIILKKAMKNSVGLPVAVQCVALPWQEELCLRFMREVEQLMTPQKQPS
assayProcedure: Inhibition of rat FFAH expressed in Escherichia coli using AAMCA as substrate incubated for 1 min measured for 50 mins by fluorescence assay
IC50 strictly under 80 nM means true; at 80 nM or over means false.

Problem: Find out if reported IC50 for O=C(NC1CCC(=Cc2cccc(Oc3ccc(C(F)(F)F)cn3)c2)CC1)c1cc[nH]n1 (racemic) is less than 80 nM
Result: false

Problem: For the molecule Nc1ccc(C(=O)NC2CCC(=Cc3cccc(Oc4ccc(C(F)(F)F)cn4)c3)CC2)cn1 (racemic) , is IC50 under 80 nM?
Result: true

Problem: Does the reported IC50 of the following molecule sit strictly below 80 nM? Nc1ncc(C(=O)N[C@H]2CC/C(=C/c3cccc(Oc4ccc(C(F)(F)F)cn4)c3)CC2)cn1 (stereo not drawn)
Result: false

Problem: Below 80 nM on IC50? Entry Nc1ncc(C(=O)N[C@H]2CC/C(=C\c3cccc(Oc4ccc(C(F)(F)F)cn4)c3)CC2)cn1 (stereo not drawn)
Result: true

Problem: Given O=C(Nc1cccnc1)N1CCC(Cc2cccc(Oc3ccc(C(F)(F)F)cn3)c2)CC1 , is recorded IC50 strictly lower than 80 nM?
Result: true

Problem: Determine whether this molecule shows IC50 lower than 80 nM (ties excluded): O=C(Nc1cccnn1)N1CCC(=Cc2cccc(Oc3ccc(C(F)(F)F)cn3)c2)CC1
Result: true

Problem: Consider Nc1ccc(C(=O)N[C@H]2CC/C(=C\c3cccc(Oc4ccc(C(F)(F)F)cn4)c3)CC2)cn1 (stereo not drawn) . Does its IC50 lie strictly below 80 nM?
Result: true

###

assayProcedure: Drug level in liver of Sprague-Dawley rat at 10 mg/kg, po administered as single dose via gavage measured at 2 hrs by LC-MS/MS analysis
Type: ADME, organism-based
runParameters: read-out: Drug uptake
Kindly state concentration at 2 h for each of the entries shown.
Answer in µM, number only, no unit symbol.

Problem: Please report the recorded concentration at 2 h for O=C(N[C@H]1CC/C(=C\c2cccc(Oc3ccc(C(F)(F)F)cn3)c2)CC1)c1cccnc1 (centres undefined) .
Result: 52

Problem: Can you look up the measured concentration at 2 h of Nc1ncc(C(=O)N[C@H]2CC/C(=C\c3cccc(Oc4ccc(C(F)(F)F)cn4)c3)CC2)cn1 (centres undefined) for me?
Result: 31

Problem: concentration at 2 h for Nc1ccc(C(=O)N[C@H]2CC/C(=C\c3cccc(Oc4ccc(C(F)(F)F)cn4)c3)CC2)cn1 (centres undefined) ?
Result: 72.6

Problem: # lookup: concentration at 2 h of Cc1cc(C(=O)N[C@H]2CC/C(=C\c3cccc(Oc4ccc(C(F)(F)F)cn4)c3)CC2)cnc1N (centres undefined)
Result: 41

###

Would you kindly list concentration at 4 h for each of these compounds?
assayProcedure: Drug level in liver of Sprague-Dawley rat at 10 mg/kg, po administered as single dose via gavage measured at 4 hrs by LC-MS/MS analysis
Assay type: ADME, organism-based
runParameters: read-out: Drug uptake
Numeric answer only, unit µM assumed.

Problem: // lookup concentration at 4 h for Cc1cc(C(=O)N[C@H]2CC/C(=C\c3cccc(Oc4ccc(C(F)(F)F)cn4)c3)CC2)cnc1N (centres undefined)
Result: 37

Problem: # query: concentration at 4 h of entry O=C(N[C@H]1CC/C(=C\c2cccc(Oc3ccc(C(F)(F)F)cn3)c2)CC1)c1cccnc1 (centres undefined)
Result: 43

Problem: Endpoint output: concentration at 4 h of Nc1ncc(C(=O)N[C@H]2CC/C(=C\c3cccc(Oc4ccc(C(F)(F)F)cn4)c3)CC2)cn1 (centres undefined) . Value?
Result: 38

Problem: For the compound shown here, Nc1ccc(C(=O)N[C@H]2CC/C(=C\c3cccc(Oc4ccc(C(F)(F)F)cn4)c3)CC2)cn1 (centres undefined) , give the reported concentration at 4 h.
Result: 69.7
